Catalogue of % INHIBITION readings, one per entry.
System: IL-1-responsive human IL-8 promoter gene region
Measurement notes: reporter gene assay (RGA) of luciferase activity in CaCo2 cells stimulated with IL-1
Assay type: cell-based
Conditions used: substance 100 μM, IL-1 500 pg/mL
Starred links: 1 amine or outer side, 2 acyl side, 3 side chain; linkers in the order of their positions; H or OH if unused. Non-standard residues stand in square brackets, D forms with d. AzaVal = azavaline, CC(C)N(N[*:1])C(=O)[*:2]; azaLeu = CC(C)CN(N[*:1])C(=O)[*:2]

{"columns": ["Substance", "Measurement target", "Unit symbol", "% INHIBITION"],
 "data": [
  ["Ac-Arg-Asp-AzaLeu-Val-Pro-Gly-NH2 (Ac-RD[azaLeu]VPG-NH2; SMILES CC(=O)N[C@@H](CCCNC(=N)N)C(=O)N[C@@H](CC(=O)O)C(=O)NN(CC(C)C)C(=O)N[C@H](C(=O)N1CCC[C@H]1C(=O)NCC(N)=O)C(C)C) [ST2928]", "IL-1-responsive human IL-8 promoter gene region", "%", 29],
  ["H-Arg-Gly-AzaVal-Val-Pro-Gly-NH2 (H-RG[AzaVal]VPG-NH2; SMILES CC(C)[C@H](NC(=O)N(NC(=O)CNC(=O)[C@@H](N)CCCNC(=N)N)C(C)C)C(=O)N1CCC[C@H]1C(=O)NCC(N)=O) [ST2926]", "IL-1-responsive human IL-8 promoter gene region", "%", 20],
  ["Ac-Arg-Asp-Azagly-Val-Pro-Gly-NH2 [ST2927]", "IL-1-responsive human IL-8 promoter gene region", "%", 22],
  ["Ac-Arg-Asp-Val-AzaVal-Pro-Gly-NH2 [ST2920]", "IL-1-responsive human IL-8 promoter gene region", "%", 25]
]}
